// each record: one item and its IC50 for NAMPT (Homo sapiens, UniProt P43490)

See these solved cases before continuing.
compound | measuredOn | IC50
C#CCNC(=O)c1ccc2nc(-c3cccc(CNC(=O)COC)c3)c(-c3cccc(CNC(=O)COC)c3)nc2c1 | NAMPT (Homo sapiens, UniProt P43490) | ≥ 25 µM
CN(C)Cc1cccc(-c2nc3ccc(C(=O)N4CCN(C)CC4)cc3nc2-c2cccc(CN(C)C)c2)c1 | NAMPT (Homo sapiens, UniProt P43490) | ≥ 25 µM
C#CCNC(=O)c1ccc2nc(-c3ccc(F)cc3)c(-c3cccc(NS(C)(=O)=O)c3)nc2c1 | NAMPT (Homo sapiens, UniProt P43490) | ≥ 25 µM
C#CCNC(=O)c1ccc2nc(-c3cccc(CNC(C)=O)c3)c(-c3cccc(CNC(C)=O)c3)nc2c1 | NAMPT (Homo sapiens, UniProt P43490) | ≥ 25 µM
Nc1ccc(CNC(=S)Nc2cnc3nc(-c4ccc(F)cc4)c(-c4ccc(F)cc4)nc3c2)cn1 | NAMPT (Homo sapiens, UniProt P43490) | < 1 µM

(Q) I have this compound here, C#CCNC(=O)c1ccc2nc(-c3ccc(F)cc3)c(-c3cccc(N(C)C)c3)nc2c1 , and I need its recorded IC50.
(A) ≥ 25 µM

(Q) Try this compound next: O=C(Nc1cccnc1)Nc1cnc2nc(-c3ccc(F)cc3)c(-c3ccc(F)cc3)nc2c1
(A) < 1 µM

(Q) Entry O=C(NCCc1cccnn1)Nc1cnc2nc(-c3ccc(F)cc3)c(-c3ccc(F)cc3)nc2c1 please
(A) < 1 µM

(Q) Moving on to O=C1NCCCN1c1ccc2nc(-c3ccc(F)cc3)c(-c3ccc(F)cc3)nc2c1
(A) ≥ 25 µM

(Q) Follow-up entry: COCC(=O)NCc1cccc(-c2nc3cc(C(=O)N4CCN(C)CC4)ccc3nc2-c2ccc(F)cc2)c1
(A) ≥ 25 µM

(Q) What do you get for CN1CCN(Cc2cccc(-c3nc4ccc(C(=O)N5CCN(C)CC5)cc4nc3-c3ccc(F)cc3)c2)CC1 ?
(A) ≥ 25 µM

(Q) Record: O=C(Nc1ccc2nc(-c3ccc(F)cc3)c(-c3ccc(F)cc3)nc2c1)N1Cc2ccccc2C1
(A) < 1 µM

(Q) Further, for O=C(Nc1ccc2nc(-c3ccc(F)cc3)c(-c3ccc(F)cc3)nc2c1)N1Cc2cccnc2C1 ?
(A) < 1 µM

(Q) And then O=C(NCc1cnc2nc(-c3ccc(F)cc3)c(-c3ccc(F)cc3)nc2c1)c1cc2ccccc2s1 , what is it?
(A) ≥ 25 µM

(Q) Can you check COCC(=O)NCc1cccc(-c2nc3ccc(C(=O)N4CCN(C)CC4)cc3nc2-c2cccc(CNC(=O)COC)c2)c1 next?
(A) ≥ 25 µM

(Q) Follow-up entry: CC(=O)N1CCCC(NC(=O)NCc2ccc3nc(-c4ccc(F)cc4)c(-c4ccc(F)cc4)nc3c2)C1 (stereo not shown)
(A) ≥ 25 µM
